The measurements presented in this section are drawn from paper PMC3961306.

experimental_target: panel of more than 300 wild-type and mutant kinases (313 kinase panel) (Homo sapiens, UniProt Q13882)
Sequence (Q13882 whole entry, change not shown): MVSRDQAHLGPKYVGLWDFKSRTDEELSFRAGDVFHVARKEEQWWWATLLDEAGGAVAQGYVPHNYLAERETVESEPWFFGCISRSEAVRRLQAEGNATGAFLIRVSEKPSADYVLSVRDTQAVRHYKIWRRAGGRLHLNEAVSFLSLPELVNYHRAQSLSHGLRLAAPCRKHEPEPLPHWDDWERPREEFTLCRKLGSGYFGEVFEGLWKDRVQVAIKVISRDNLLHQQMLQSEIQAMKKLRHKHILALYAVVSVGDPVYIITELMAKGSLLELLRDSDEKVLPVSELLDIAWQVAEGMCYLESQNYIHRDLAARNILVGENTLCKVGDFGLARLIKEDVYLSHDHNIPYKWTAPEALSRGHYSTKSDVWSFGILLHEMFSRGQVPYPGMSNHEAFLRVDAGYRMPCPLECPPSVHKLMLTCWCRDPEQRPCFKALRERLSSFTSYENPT
experiment_description: Kinase profiling in a biochemical assay panel (mobility shift assays and ELISA), %-inhibition at 1 μM; selectivity entropy
experimental_parameters: kinase BRK; 1 μM compound
Binary call on %-inhibition, BRK: Yes from 40% upward, No beneath that.

| molecule | assigned_class |
| --- | --- |
| Cc1ccc(Nc2nccc(N(C)c3ccc4c(C)n(C)nc4c3)n2)cc1S(N)(=O)=O [pazopanib] | Yes |
| N#CC[C@H](C1CCCC1)n1cc(-c2ncnc3[nH]ccc23)cn1 [ruxolitinib] | No |
| COc1cc(Nc2c(C#N)cnc3cc(OCCCN4CCN(C)CC4)c(OC)cc23)c(Cl)cc1Cl [bosutinib] | No |
| CO[C@H]1C[C@@H]2CC[C@@H](C)[C@@](O)(O2)C(=O)C(=O)N2CCCC[C@H]2C(=O)O[C@H]([C@H](C)C[C@@H]2CC[C@@H](OC(=O)C(C)(CO)CO)[C@H](OC)C2)CC(=O)[C@H](C)/C=C(\C)[C@@H](O)[C@@H](OC)C(=O)[C@H](C)C[C@H](C)/C=C/C=C/C=C/1C [temsirolimus] | No |
| CC(C)(C)c1nc(-c2cccc(NS(=O)(=O)c3c(F)cccc3F)c2F)c(-c2ccnc(N)n2)s1 [dabrafenib] | Yes |
| CCCS(=O)(=O)Nc1ccc(F)c(C(=O)c2c[nH]c3ncc(-c4ccc(Cl)cc4)cc23)c1F [vemurafenib] | Yes |
| CNC(=O)c1cc(Oc2ccc(NC(=O)Nc3ccc(Cl)c(C(F)(F)F)c3)c(F)c2)ccn1 [regorafenib] | No |
| O=S(=O)(c1cccc2cnccc12)N1CCCNCC1 [fasudil] | No |

----------
Catalogue of compounds with associated %-inhibition of MAP3K5
experimental_target: panel of more than 300 wild-type and mutant kinases (313 kinase panel) (Homo sapiens, UniProt Q99683)
Sequence (Q99683 1-1374): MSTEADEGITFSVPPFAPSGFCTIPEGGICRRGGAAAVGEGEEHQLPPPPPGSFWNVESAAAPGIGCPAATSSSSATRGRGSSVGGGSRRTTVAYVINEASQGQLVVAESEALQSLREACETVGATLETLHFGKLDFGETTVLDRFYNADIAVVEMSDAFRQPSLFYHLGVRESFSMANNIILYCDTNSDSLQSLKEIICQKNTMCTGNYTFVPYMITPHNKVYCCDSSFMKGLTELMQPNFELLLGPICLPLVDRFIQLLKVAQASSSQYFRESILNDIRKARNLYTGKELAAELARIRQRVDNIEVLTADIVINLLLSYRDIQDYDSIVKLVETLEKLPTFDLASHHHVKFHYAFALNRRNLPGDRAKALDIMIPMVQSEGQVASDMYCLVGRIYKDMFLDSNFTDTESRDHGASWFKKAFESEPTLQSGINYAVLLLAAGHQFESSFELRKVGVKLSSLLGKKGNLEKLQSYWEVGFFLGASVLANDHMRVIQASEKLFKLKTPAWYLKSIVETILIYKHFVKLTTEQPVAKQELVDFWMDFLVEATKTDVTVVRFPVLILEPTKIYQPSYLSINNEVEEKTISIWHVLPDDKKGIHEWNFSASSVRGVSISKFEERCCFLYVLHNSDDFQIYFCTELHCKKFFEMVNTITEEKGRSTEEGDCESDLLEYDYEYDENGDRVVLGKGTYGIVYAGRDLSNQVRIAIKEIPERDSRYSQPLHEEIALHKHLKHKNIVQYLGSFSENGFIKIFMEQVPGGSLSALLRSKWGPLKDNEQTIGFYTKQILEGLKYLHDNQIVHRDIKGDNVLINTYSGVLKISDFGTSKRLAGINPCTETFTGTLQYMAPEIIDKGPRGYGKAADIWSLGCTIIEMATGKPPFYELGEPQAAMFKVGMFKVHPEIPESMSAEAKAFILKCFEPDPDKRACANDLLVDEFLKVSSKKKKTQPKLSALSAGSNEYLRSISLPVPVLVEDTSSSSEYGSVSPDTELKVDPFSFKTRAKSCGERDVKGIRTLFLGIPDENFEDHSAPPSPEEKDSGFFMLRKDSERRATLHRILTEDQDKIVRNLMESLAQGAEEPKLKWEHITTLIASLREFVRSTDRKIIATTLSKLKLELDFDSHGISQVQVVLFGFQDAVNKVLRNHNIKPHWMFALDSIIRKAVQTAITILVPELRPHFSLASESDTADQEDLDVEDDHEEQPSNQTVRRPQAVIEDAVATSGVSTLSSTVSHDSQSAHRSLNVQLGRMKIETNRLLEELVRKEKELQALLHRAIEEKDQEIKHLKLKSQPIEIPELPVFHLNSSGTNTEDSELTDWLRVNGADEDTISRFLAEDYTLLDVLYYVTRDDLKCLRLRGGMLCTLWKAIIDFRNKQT
experiment_description: Kinase profiling in a biochemical assay panel (mobility shift assays and ELISA), %-inhibition at 1 μM; selectivity entropy
experimental_parameters: kinase MAP3K5; compound at 1 μM
test_readout: %-inhibition of MAP3K5 (%)

| compound | test_readout | measured_result |
| --- | --- | --- |
| COc1cc2c(Nc3ccc(Br)cc3F)ncnc2cc1OCC1CCN(C)CC1 | %-inhibition of MAP3K5 | 8 |
| COc1cc2nccc(Oc3ccc(NC(=O)C4(C(=O)Nc5ccc(F)cc5)CC4)cc3)c2cc1OC [cabozantinib] | %-inhibition of MAP3K5 | 1.72 |
| CNC(=O)c1cc(Oc2ccc(NC(=O)Nc3ccc(Cl)c(C(F)(F)F)c3)c(F)c2)ccn1 | %-inhibition of MAP3K5 | 5 |
| C[C@@H](Oc1cc(-c2cnn(C3CCNCC3)c2)cnc1N)c1c(Cl)ccc(F)c1Cl | %-inhibition of MAP3K5 | 1.11 |
| Cc1nc(Nc2ncc(C(=O)Nc3c(C)cccc3Cl)s2)cc(N2CCN(CCO)CC2)n1 | %-inhibition of MAP3K5 | -1.69 |
| CO[C@H]1C[C@@H]2CC[C@@H](C)[C@@](O)(O2)C(=O)C(=O)N2CCCC[C@H]2C(=O)O[C@H]([C@H](C)C[C@@H]2CC[C@@H](OC(=O)C(C)(CO)CO)[C@H](OC)C2)CC(=O)[C@H](C)/C=C(\C)[C@@H](O)[C@@H](OC)C(=O)[C@H](C)C[C@H](C)/C=C/C=C/C=C/1C | %-inhibition of MAP3K5 | 2.79 |
| Cc1cn(-c2cc(NC(=O)c3ccc(C)c(Nc4nccc(-c5cccnc5)n4)c3)cc(C(F)(F)F)c2)cn1 | %-inhibition of MAP3K5 | -2.28 |
